Reference for the values: patent US20060093617A1

- measuredTarget: HLA-A0201 (human)
- assayName: competition vs 125I probe peptide, purified HLA-A*0201
Please provide measured pKi for the entries that follow.
Give bare numbers, as −log10 of the molar value.

Use the examples below as a reference point.
* YQATVCARA (modifications not checked) | 7.70
* GMFDSSVLC (modifications not checked) | 7.15
* KVLVLNPSV (modifications not checked) | 7.30
* VVSTLPQAV (modifications not checked) | 6.05

// moving on: another record for pKi
# input binder: MALYDVVST (modifications not checked) ; wanted: its pKi
5.94
